Value source: PubChem BioAssay AID2060902

Record form. Attribute: IC50. Fill in for each entry.
system: 485368-065-R3-J5-PDC spheroids with HUVEC/MSC, viability; assay: Anticancer human tumor 485368-065-R3-J5-PDC patient-derived pancreatic carcinoma cell line growth inhibition [RAS]; settings: curve of first compound; second compound 0.03 µM

Quickly give me recorded IC50 for CC(Nc1ccc2c(c1)OCCn1cc(N3C(=O)OCC3C(F)F)nc1-2)C(N)=O (stereo not drawn) + CCn1c(-c2cc(N3CCN(C)CC3)cnc2C(C)OC)c2c3cc(ccc31)-c1csc(n1)CC(NC(=O)C1CC1C)C(=O)N1CCCC(N1)C(=O)OCC(C)(C)C2 < 31.6 nM

Quickly give me recorded IC50 for CCC(CC)c1cc(NC2CCC(N)C2)n2nccc2n1 (stereo not drawn) + CCn1c(-c2cccnc2C(C)OC)c2c3cc(ccc31)N1CCOC(CC(NC(=O)C(C(C)C)N(C)C(=O)C3(F)CCN(C(=O)C#CC(C)(C)N(C)C)CC3)C(=O)N3CCCC(N3)C(=O)OCC(C)(C)C2)C1 2030 nM

Quickly give me recorded IC50 for CCN1CCN(Cc2ccc(Nc3ncc(F)c(-c4cc(F)c5nc(C)n(C(C)C)c5c4)n3)nc2)CC1 + CCn1c(-c2cccnc2C(C)OC)c2c3cc(ccc31)N1CCOC(CC(NC(=O)C(C(C)C)N(C)C(=O)C3(F)CCN(C(=O)C#CC(C)(C)N(C)C)CC3)C(=O)N3CCCC(N3)C(=O)OCC(C)(C)C2)C1 693 nM

Quickly give me recorded IC50 for CCc1c2c(nc3ccc(O)cc13)-c1cc3c(c(=O)n1C2)COC(=O)[C@]3(O)CC + CCn1c(-c2cc(N3CCN(C)CC3)cnc2C(C)OC)c2c3cc(ccc31)-c1csc(n1)CC(NC(=O)C1CC1C)C(=O)N1CCCC(N1)C(=O)OCC(C)(C)C2 < 0.949 nM

Quickly give me recorded IC50 for NC1c2ccccc2OC12CCN(c1cnc3c(N4CCCc5ncccc54)n[nH]c3n1)CC2 (stereo not drawn) + CCn1c(-c2cccnc2C(C)OC)c2c3cc(ccc31)N1CCOC(CC(NC(=O)C(C(C)C)N(C)C(=O)C3(F)CCN(C(=O)C#CC(C)(C)N(C)C)CC3)C(=O)N3CCCC(N3)C(=O)OCC(C)(C)C2)C1 > 10000 nM

Quickly give me recorded IC50 for C=CC(=O)Nc1cc(Nc2nccc(-c3cn(C)c4ccccc34)n2)c(OC)cc1N(C)CCN(C)C + CCn1c(-c2cc(N3CCN(C)CC3)cnc2C(C)OC)c2c3cc(ccc31)-c1csc(n1)CC(NC(=O)C1CC1C)C(=O)N1CCCC(N1)C(=O)OCC(C)(C)C2 < 3.16 nM

Quickly give me recorded IC50 for CCN1CCN(Cc2ccc(Nc3ncc(F)c(-c4cc(F)c5nc(C)n(C(C)C)c5c4)n3)nc2)CC1 + CCn1c(-c2cc(N3CCN(C)CC3)cnc2C(C)OC)c2c3cc(ccc31)-c1csc(n1)CC(NC(=O)C1CC1C)C(=O)N1CCCC(N1)C(=O)OCC(C)(C)C2 < 3.16 nM

Quickly give me recorded IC50 for Nc1ccn(C2OC(CO)C(O)C2(F)F)c(=O)n1 (stereo not drawn) + CCn1c(-c2cc(N3CCN(C)CC3)cnc2C(C)OC)c2c3cc(ccc31)-c1csc(n1)CC(NC(=O)C1CC1C)C(=O)N1CCCC(N1)C(=O)OCC(C)(C)C2 < 3.16 nM

---

Record form. Attribute: viability, T/C. Fill in for each entry.
test system: 485368-065-R3-J5-PDC spheroids with HUVEC/MSC, viability; experiment: Anticancer human tumor 485368-065-R3-J5-PDC cell line growth inhibition [RAS]; settings: second compound 0.00949 µM; first compound 0.000949 µM; stronger effect = lower value;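 note: spheroids exposed to agents for seven days before readout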

Enter recorded viability, T/C with 485368-065-R3-J5-PDC spheroids with HUVEC/MSC, viability for CCc1c2c(nc3ccc(O)cc13)-c1cc3c(c(=O)n1C2)COC(=O)[C@]3(O)CC + CCn1c(-c2cc(N3CCN(C)CC3)cnc2C(C)OC)c2c3cc(ccc31)-c1csc(n1)CC(NC(=O)C1CC1C)C(=O)N1CCCC(N1)C(=O)OCC(C)(C)C2 here. 15.4%

Enter recorded viability, T/C with 485368-065-R3-J5-PDC spheroids with HUVEC/MSC, viability for CC1(C)CCC(Nc2ncc(C(F)(F)F)c(-c3c[nH]c4c(P(C)(C)=O)c(C#N)ccc34)n2)CN1 (centres undefined) + CCn1c(-c2cc(N3CCN(C)CC3)cnc2C(C)OC)c2c3cc(ccc31)-c1csc(n1)CC(NC(=O)C1CC1C)C(=O)N1CCCC(N1)C(=O)OCC(C)(C)C2 here. 17.1%

Enter recorded viability, T/C with 485368-065-R3-J5-PDC spheroids with HUVEC/MSC, viability for CCc1c2c(nc3ccc(O)cc13)-c1cc3c(c(=O)n1C2)COC(=O)[C@]3(O)CC + CCn1c(-c2cccnc2C(C)OC)c2c3cc(ccc31)N1CCOC(CC(NC(=O)C(C(C)C)N(C)C(=O)C3(F)CCN(C(=O)C#CC(C)(C)N(C)C)CC3)C(=O)N3CCCC(N3)C(=O)OCC(C)(C)C2)C1 here. 76.9%

Enter recorded viability, T/C with 485368-065-R3-J5-PDC spheroids with HUVEC/MSC, viability for CC1(C)CCC(Nc2ncc(C(F)(F)F)c(-c3c[nH]c4c(P(C)(C)=O)c(C#N)ccc34)n2)CN1 (centres undefined) + CCn1c(-c2cccnc2C(C)OC)c2c3cc(ccc31)N1CCOC(CC(NC(=O)C(C(C)C)N(C)C(=O)C3(F)CCN(C(=O)C#CC(C)(C)N(C)C)CC3)C(=O)N3CCCC(N3)C(=O)OCC(C)(C)C2)C1 here. 107%

---

Record form. Attribute: viability, T/C. Fill in for each entry.
tested on: 485368-065-R3-J5-PDC spheroids with HUVEC/MSC, viability; assay: Anticancer human tumor 485368-065-R3-J5-PDC cell line growth inhibition [RAS]; settings: second compound 1 µM; first compound 0.0949 µM; stronger effect = lower value;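 note: spheroids exposed to agents for seven days before readout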
Dear colleague, please return just the value in %, with no unit written.

Quickly give me recorded viability, T/C for CC1(C)CCC(Nc2ncc(C(F)(F)F)c(-c3c[nH]c4c(P(C)(C)=O)c(C#N)ccc34)n2)CN1 (centres undefined) + C#Cc1c(F)ccc2cc(O)cc(-c3ncc4c(N5CC6CCC(C5)N6)nc(OCC56CCCN5CC(F)C6)nc4c3F)c12 30.8

Quickly give me recorded viability, T/C for CC1(C)CCC(Nc2ncc(C(F)(F)F)c(-c3c[nH]c4c(P(C)(C)=O)c(C#N)ccc34)n2)CN1 (centres undefined) + C=CC(=O)N1CCN(c2nc(OCC3CCCN3C)nc3c(F)c(-c4nc(N)cc(C)c4C(F)(F)F)c(Cl)cc23)C(C)C1 32.1

Quickly give me recorded viability, T/C for CCc1c2c(nc3ccc(O)cc13)-c1cc3c(c(=O)n1C2)COC(=O)[C@]3(O)CC + C=CC(=O)N1CCN(c2nc(OCC3CCCN3C)nc3c(F)c(-c4nc(N)cc(C)c4C(F)(F)F)c(Cl)cc23)C(C)C1 5.14

Quickly give me recorded viability, T/C for CCc1c2c(nc3ccc(O)cc13)-c1cc3c(c(=O)n1C2)COC(=O)[C@]3(O)CC + C#Cc1c(F)ccc2cc(O)cc(-c3ncc4c(N5CC6CCC(C5)N6)nc(OCC56CCCN5CC(F)C6)nc4c3F)c12 4.29

---

System: 485368-065-R3-J5-PDC spheroids with HUVEC/MSC, viability
Test: Anticancer human tumor 485368-065-R3-J5-PDC cell line growth inhibition [RAS];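 note: spheroids exposed to agents for seven days before readout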
Conditions: second compound 0.00949 µM; first compound 0.003 µM; stronger effect = lower value
Description: RAS pathway inhibitors in Combinations in Complex Spheroids A high-throughput screen of multi-cell type tumor spheroids was designed to identify active combinations of RAS pathway inhibitors and targeted small molecules. Complex spheroids include a stromal component modeled by human endothelial cells (HUVEC) and fibroblasts modeled by human mesenchymal stem cells (MSCs). […] Compounds. […] If the clinical Cmax for an agent had not been determined, the highest concentration tested was 10 microM. […]
Record form. Attribute: viability, T/C. Fill in for each entry.
Dear colleague, please return just the value in %, with no unit written.

Quickly give me recorded viability, T/C for CC1(C)CCC(Nc2ncc(C(F)(F)F)c(-c3c[nH]c4c(P(C)(C)=O)c(C#N)ccc34)n2)CN1 (centres undefined) + CCn1c(-c2cc(N3CCN(C)CC3)cnc2C(C)OC)c2c3cc(ccc31)-c1csc(n1)CC(NC(=O)C1CC1C)C(=O)N1CCCC(N1)C(=O)OCC(C)(C)C2 19

Quickly give me recorded viability, T/C for CC1(C)CCC(Nc2ncc(C(F)(F)F)c(-c3c[nH]c4c(P(C)(C)=O)c(C#N)ccc34)n2)CN1 (centres undefined) + CCn1c(-c2cccnc2C(C)OC)c2c3cc(ccc31)N1CCOC(CC(NC(=O)C(C(C)C)N(C)C(=O)C3(F)CCN(C(=O)C#CC(C)(C)N(C)C)CC3)C(=O)N3CCCC(N3)C(=O)OCC(C)(C)C2)C1 86.7

Quickly give me recorded viability, T/C for CCc1c2c(nc3ccc(O)cc13)-c1cc3c(c(=O)n1C2)COC(=O)[C@]3(O)CC + CCn1c(-c2cccnc2C(C)OC)c2c3cc(ccc31)N1CCOC(CC(NC(=O)C(C(C)C)N(C)C(=O)C3(F)CCN(C(=O)C#CC(C)(C)N(C)C)CC3)C(=O)N3CCCC(N3)C(=O)OCC(C)(C)C2)C1 39.2

Quickly give me recorded viability, T/C for CCc1c2c(nc3ccc(O)cc13)-c1cc3c(c(=O)n1C2)COC(=O)[C@]3(O)CC + CCn1c(-c2cc(N3CCN(C)CC3)cnc2C(C)OC)c2c3cc(ccc31)-c1csc(n1)CC(NC(=O)C1CC1C)C(=O)N1CCCC(N1)C(=O)OCC(C)(C)C2 11.8
